tested on: MIA PaCa-2; experiment: Antiproliferative activity against human MIA PaCa-2 cells assessed as cell viability measured after 168 hrs incubation by SRB assay; type: functional, cell-based; conditions: MIA PaCa-2, 168 h
pIC50: −log10 of the molar value.
Entries and their pIC50
Experimental Endpoint: pIC50

[[record]]
given_smiles = "CCN(CC)C(=O)[C@@H](C)Oc1cc2oc(=O)cc(-c3ccccc3Cl)c2cc1F"
censoring_sign = "="
numeric_readout = 7.85

[[record]]
given_smiles = "CCN(CC)C(=O)[C@@H](C)Oc1cc2oc(=O)cc(-c3ccccc3)c2cc1F"
censoring_sign = "="
numeric_readout = 6.17

[[record]]
given_smiles = "C[C@@H](Oc1cc2oc(=O)cc(-c3ccc(F)cc3Cl)c2cc1F)C(=O)NCCC#N"
censoring_sign = "="
numeric_readout = 5.93

[[record]]
given_smiles = "CCN(CC)C(=O)[C@@H](C)Oc1cc2oc(=O)cc(-c3cccc(Cl)c3)c2cc1F"
censoring_sign = "="
numeric_readout = 5.49

[[record]]
given_smiles = "C[C@@H](Oc1ccc2c(-c3ccc(F)cc3Cl)cc(=O)oc2c1Cl)C(=O)N1CCC[C@H](C(=O)O)C1"
censoring_sign = "<"
numeric_readout = 5.30

[[record]]
given_smiles = "C[C@@H](Oc1cc2oc(=O)cc(-c3ccc(F)cc3Cl)c2cc1F)C(=O)N1CCC[C@H](C(=O)O)C1"
censoring_sign = "="
numeric_readout = 6.84

[[record]]
given_smiles = "C[C@@H](Oc1cc2oc(=O)cc(-c3ccc(F)cc3Cl)c2cc1F)C(=O)N1CCC(Cl)CC1"
censoring_sign = "="
numeric_readout = 6.28

[[record]]
given_smiles = "C[C@@H](Oc1cc2oc(=O)cc(-c3ccc(F)cc3Cl)c2cc1F)C(=O)N(C)C1COC1"
censoring_sign = "="
numeric_readout = 5.77

[[record]]
given_smiles = "CCN(CC)C(=O)[C@@H](C)Oc1cc2oc(=O)cc(-c3cccc4ccccc34)c2cc1F"
censoring_sign = "="
numeric_readout = 6.13

